Target: HRgpA-6H (Porphyromonas gingivalis) (UniProt P28784)
Experiment: ELISA on coated HRgpA-6H
Recorded endpoint: Ratio OD(Variant)/OD(WT)
# respond with the number and nothing more

| Binder | Ratio OD(Variant)/OD(WT) |
| --- | --- |
| KB001 mouse Fab FASEBA VH N60S (Fab, V domains shown) VH: EVQLKQSGPGLVAPSQSLSITCTVSGFSLSIYSVHWVRQPPGKGLEWLGMIWGGGSSDYSSALKSRLSISKDNSKSQVFLKMNSLQTDDTAMYYCARNGNFYAMDYWGQGTSVTVSS VL: QIVLTQSPAIMSASLGERVTMTCTASSSVSSSFLHWYQQKPGSSPQLWIYSTSNLASGVPARFSGSGSGTSYSLTISSMEAEDAATYYCHQYHHSPYIYTFGGGTKLEIK | 0.916 |
| KB001 mouse Fab FASEBA VH Y106I (Fab, V domains shown) VH: EVQLKQSGPGLVAPSQSLSITCTVSGFSLSIYSVHWVRQPPGKGLEWLGMIWGGGSSDYNSALKSRLSISKDNSKSQVFLKMNSLQTDDTAMYYCARNGNFYAMDIWGQGTSVTVSS VL: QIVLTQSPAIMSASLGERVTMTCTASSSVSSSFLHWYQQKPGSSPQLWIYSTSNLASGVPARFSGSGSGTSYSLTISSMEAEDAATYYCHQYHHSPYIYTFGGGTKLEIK | 1.04 |
| KB001 mouse Fab FASEBA VH A62E (Fab, V domains shown) VH: EVQLKQSGPGLVAPSQSLSITCTVSGFSLSIYSVHWVRQPPGKGLEWLGMIWGGGSSDYNSELKSRLSISKDNSKSQVFLKMNSLQTDDTAMYYCARNGNFYAMDYWGQGTSVTVSS VL: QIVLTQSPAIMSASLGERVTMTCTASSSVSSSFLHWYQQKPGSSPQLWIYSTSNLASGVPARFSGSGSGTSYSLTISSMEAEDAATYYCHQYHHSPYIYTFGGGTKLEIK | 0.977 |
| KB001 mouse Fab FASEBA VH S56L (Fab, V domains shown) VH: EVQLKQSGPGLVAPSQSLSITCTVSGFSLSIYSVHWVRQPPGKGLEWLGMIWGGGLSDYNSALKSRLSISKDNSKSQVFLKMNSLQTDDTAMYYCARNGNFYAMDYWGQGTSVTVSS VL: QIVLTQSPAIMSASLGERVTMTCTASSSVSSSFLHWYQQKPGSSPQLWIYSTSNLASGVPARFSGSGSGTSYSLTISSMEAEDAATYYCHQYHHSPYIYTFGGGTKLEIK | 0.807 |

Attention now shifts to the item below.
Task item: // Ratio OD(Variant)/OD(WT) lookup, key: KB001 mouse Fab FASEBA VH K64S (Fab, V domains shown) VH: EVQLKQSGPGLVAPSQSLSITCTVSGFSLSIYSVHWVRQPPGKGLEWLGMIWGGGSSDYNSALSSRLSISKDNSKSQVFLKMNSLQTDDTAMYYCARNGNFYAMDYWGQGTSVTVSS VL: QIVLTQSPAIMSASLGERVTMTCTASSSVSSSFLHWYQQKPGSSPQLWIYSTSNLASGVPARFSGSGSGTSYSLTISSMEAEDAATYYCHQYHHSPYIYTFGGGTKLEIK
Reply: 0.977
